Recorded values, source the DeepSol protein solubility set.

Assay: soluble on expression in E. coli; label from the status in PepcDB or PDB records
PARAMETER MEASURED: soluble on expression in E. coli

Sample records with soluble on expression in E. coli:
INSERT INTO assay_data (macromolecule_sequence, meas_value) VALUES
  ('MLPRFADIFQQGNRWLNWLEKQPEGAVRPVVIESVTKIMACGTTLMGYTNRCCSSPDCCHTKKVCFRCKSRSCPHCVVKAGAQWIQYLLSLVPYCPWQHIVFTLPCQYWSLVFHNRWLLAKMSRIAADVILEICHQADVEPGIFTVIHTWGRDQQWHPHIHLSTTAGGVTSGHTWKNLHFYARKVMSMWRYRITRLLSRKYPYLVMPDALAAEGSSKREWNRFLDTHYRRGWNVNVSRVMDNATHVAVYFGSYLKKPPVPMSRLEHYAGQDEIGLRYNSHRTKREEYLLMSGDESMERFSWHVADKGFRMVRYYVFLSPAKRRLLEEVVYIITETVRKTAMQITWRGMYQRLLKVDPLKCVLCGSQMRFTGLKRGYRLAEQVLMHEPLARMRWCG', 'not soluble'),
  ('KTISLYKDSIPKEKTEGTDAILISDNQLINQLQTAAKTSSSQNKANTAAITFKQSNKSETDQSTTSQVIGYTTTASLKADKKNIFDVKKLNNEKSERKIIVGATVETLNQANTLQANEAIIKPAPGKYQSTDSHKVMITQGPNIVGIHANEKEDKETQKFINW', 'soluble'),
  ('MVQHQMFDPGVADLLDTDILTSPSKRKRKLKIDDISTSDRSELEDYIVLENVYRMFGITFFPLVDPIDLKIKDASGEIFVDREMLGIRLEVFSERTSQFEKPHYVLLKKRIKSNSWFLFKHTIPSFIDVQGIFDDTNGGLVISHDDAYLFAKRVFLQLVEVQKRRQIFKDLEAKKIIHDLDLDLESSMVSFFVKDIKVELFVKQNEIVSCSILDDIHDFSQNNKSKWEIALLGSLDDLELKLNHSFATIFK', 'not soluble'),
  ('VTALDWRSALTADEQRSVRALVTATTAVDGVAPVGEQVLRELGQQRTEHLLVAGSRPGGPIIGYLNLSPPRGAGGAMAELVVHPQSRRRGIGTAMARAALAKTAGRNQFWAHGTLDPARATASALGLVGVRELIQMRRPLRDIPEPTIPDGVVIRTYAGTSDDAELLRVNNAAFAGHPEQGGWTAVQLAERRGEAWFDPDGLILAFGDSPRERPGRLLGFHWTKVHPDHPGLGEVYVLGVDPAAQRRGLGQMLTSIGIVSLARRLGGRKTLDPAVEPAVLLYVESDNVAAVRTYQSLGFTTYSVDTAYALAGTDN', 'not soluble'),
  ('MQQLLAPVHAFLRCETPQTWIDVARASASLDELLIDHCNCELKAAQTAMFLLRRYALNAESGQSLLAWAKPYEEFVYHKDRDIEQFLARDVKKNELVAVLQPNQHFSFAQDLIPPLIRLIKEEFHHFEQVLELMHARQIPYRNIRAGRYAKGMMSHVTTHEKNILRDKLIVGAYIEARSCERFAKLAPYLDAELSKFYVSLLRSEARHFEDYLKLAQLVSSEDISERVAYFGEREAELIMAPDDEFHFHSGQPQAIKYSYA', 'not soluble');

The sequence IAPTAQKLSKIYGVRSSIIIGQAALDSHFGSTLLASKYHNLFSIEASPGQGAVRLKSHEYKNGRWQEVTNRYLVYESWKESLYDYMAILHGNKIWDKALYTTMMTSSGYKTVARALQAAGFNSDPNYADKLIAVIEENNLTDYDK showed soluble on expression in E. coli equal to not soluble

The sequence MSLSISEKPLSELLRPKDFEDFVGQDHIFGNKGILRRTLKTGNMFSSILYGPPGSGKTSVFSLLKRYFNGEVVYLSSTVHGVSEIKNVLKRGEQLRKYGKKLLLFLDEIHRLNKNQQMVLVSHVERGDIVLVATTTENPSFVIVPALLSRCRILYFKKLSDEDLMKILKKATEVLNIDLEESVEKAIVRHSEGDARKLLNTLEIVHQAFKNKRVTLEDLETLLGNVSGYTKESHYDFASAFIKSMRGSDPNAAVYYLVKMIEMGEDPRFIARRMIIFASEDVGLADPNALHIAVSTSIAVEHVGLPECLMNLVECAVYLSLAPKSNSVYLAMKEGHHHHHH showed soluble on expression in E. coli equal to not soluble

The sequence MGYIVDISKWNGNINWDVAAPQLDFVIARVQDGSNYIDPLYKSYVQAMKTRNIPFGNYAFCRFISIADAKKEAQDFWNRGDKSATVWVADVEVKTMDDMIAGTQAFIDELRRLGAKKVGLYVGHHMYGPFGMANVKSDFVWIPRYGGNKPAYPCDIWQYTETGNVPGIGKCDLNQLIGNKPLSWFTESVPKQENIQAQVSKQNIIQSGAFSPYETPDVMGALTSLKMTATFILQSDGLTYFVTEPTSDTQLNALKSWLDRKGWWYEVK showed soluble on expression in E. coli equal to not soluble

The sequence SNIMDFNVKKLAADAGTFLSRAVQFTEEKLGQAEKTELDAHLENLLSKAECTKIWTEKIMKQTEVLLQPNPNARIEEFVYEKLDRKAPSRINNPELLGQYMIDAGTEFGPGTAYGNALIKCGETQKRIGTADRELIQTSALNFLTPLRNFIEGDYKTIAKERKLLQNKRLDLDAAKTRLKKAKAAETRNSSEQELRITQSEFDRQAEITRLLLEGISSTHAHHLRCLNDFVEAQMTYYAQCYQYMLDLQKQLGSFPSNYLSNNNQTSVTPVPSVLPNAIGSSAMASTSGLVITSPSNLSDLKECSGSRKARVLYDYDAANSTELSLLADEVITVFSVVGMDSDWLMGERGNQKGKVPITYLELLN showed soluble on expression in E. coli equal to not soluble

The sequence MKLDQIDLNIIEELKKDSRLSMRELGRKIKLSPPSVTERVRQLESFGIIKQYTLEVDQKKLGLPVSCIVEATVKNADYERFKSYIQTLPNIEFCYRIAGAACYMLKINAESLEAVEDFINKTSPYAQTVTHVIFSEIDTKNGRG showed soluble on expression in E. coli equal to soluble

The sequence MGSDKIHHHHHHACDGILEGIYDSPAASDSNELGFIRTDPSTHSGTIYIDATDYRRWTFIDFHTQKVDSVNVTDSEQKEPEEWDIAVHRYDVKTNAGAVLETGFTGFSALRNADAMPEGAYVEDVWTTAKIAIDMSGMMDGNIVYMESYYNEELSKWLNVDKSNMPPTYTLSNKVYMVKLKDGTYAAVRLTNYMNASGVKGFMTIDYIYPFEL showed soluble on expression in E. coli equal to not soluble
